Assay: qHTS assay to identify small molecule antagonists of the androgen receptor (AR) signaling pathway using the MDA cell line - cell viability counter screen (AID 743041; further: nearly all actives have a fitted effect of over 45% in size)
Details: MDA-kb2 viability, CellTiter-Fluor, 16 h, cells co-treated with R1881 androgen agonist; series mostly up to 70.3 µM
Inconclusive results are not listed. Calls of active or inactive are those of the source. The call rests on the fitted dose curve; in most records, active means well fitted cell-killing curve with a large enough effect in the repeat runs; inconclusive means weak or mixed curves, or effect the other way; inactive means flat fitted curve, though single readings scatter.
One label from this list, please: Yes = active, No = inactive

Record lookup: outcome of this test for CCCC[n+]1ccc(C)cc1 ?
No

Record lookup: outcome of this test for CCCCCCn1cc[n+](C)c1 ?
Yes

Record lookup: outcome of this test for CCCCCCCCCCCC(=O)O ?
No

Record lookup: outcome of this test for CCCCn1cc[n+](C)c1 ?
No

Record lookup: outcome of this test for CC(Cl)(Cl)C(=O)O ?
No

Record lookup: outcome of this test for CCC[N+]1(C)CCCC1 ?
No
